# PROCEDURE SUMMARY: Primary qHTS for delayed death inhibitors of the malarial parasite plastid, 96 hour incubation
# MEASUREMENT CONTEXT: P. falciparum luciferase reporter growth; series mostly up to 28.7 µM
Among all 320,000 compounds or so, about 22,000 (6.9%) were called active. Inconclusive results (about 27%) are left out. Calls follow the shape of the dose curve; as a rule, active = well fitted inhibition curve with a large enough effect; inconclusive = small, poorly fitted or top-dose-only effect, or another doubt; inactive = no such curve, though single readings can be large or run the other way. The list comes from a sample in which actives are over-represented; it also holds close analogues and randomly drawn compounds.
Outcomes: active, inactive

O=C(CCc1c[nH]c2ccccc12)NCCOc1ccccc1    inactive
O=C(COC(=O)Cc1c[nH]c2ccccc12)NCCc1ccccc1    inactive
CS(=O)(=O)NCc1ccc(C(=O)NCc2ccccc2)cc1    inactive
CN1CCN(Cc2ccccc2C(F)(F)F)CC1    inactive
Cc1ccc2c(CN3CCN(S(=O)(=O)c4ccccc4C(F)(F)F)CC3)cc(=O)oc2c1    active
O=c1cc(CN2CCN(S(=O)(=O)/C=C/c3ccccc3)CC2)c2ccc(O)cc2o1    active
Cc1onc(-c2ccccc2)c1C(=O)N1CCN(S(=O)(=O)c2ccccc2C(F)(F)F)CC1    inactive
O=C(Cc1c[nH]c2ccccc12)OCCOC(=O)Cc1c[nH]c2ccccc12    active
COc1ccc(CCNC(=O)COC(=O)C2CC2C)cc1 (stereo unspecified)    inactive
CS(=O)(=O)Nc1ccccc1N=C(c1ccccc1)c1ccccc1    inactive
Cc1ccc(C(=O)NC2CCN(C(=O)Nc3ccccc3Cl)CC2)cc1    inactive

* * *

# PROCEDURE SUMMARY: Primary qHTS for delayed death inhibitors of the malarial parasite plastid, 96 hour incubation; also: potency is read from the fitted curve at half-maximal effect
# MEASUREMENT CONTEXT: P. falciparum luciferase reporter growth; series mostly up to 28.7 µM
Among all 320,000 compounds or so, about 22,000 (6.9%) were called active. Roughly 27% stayed inconclusive and do not appear here. The sample as a whole holds a higher share of actives than the screen did.
REPORTED PROPERTY: Potency

CC1CCCN(CC(O)COCc2ccccc2)C1 (stereo unspecified)    inactive
Cc1nc2c(C(=O)NCc3ccc4c(c3)OCO4)c[nH]n2c(=O)c1Cc1ccccc1F    inactive
Oc1c(CN2CCCC2)cc(COCc2ccccc2)c2cccnc12    2.08 µM (active)
COc1ccc(C)cc1S(=O)(=O)N(CC(=O)Nc1cccc([N+](=O)[O-])c1)c1ccc(C)cc1    11.7 µM (active)
CCc1c(C)nc(SCC(=O)NC2CCCC2)[nH]c1=O    inactive
Nc1ccc(Nc2ccccc2)cc1    9.28 µM (active)
O=C(NCc1ccccc1Cl)NC(=O)c1csc([N+](=O)[O-])c1    inactive
CCOc1ccc(S(=O)(=O)N2CCN=C2Cc2ccccc2)cc1C    inactive
CCOc1ccc2nc(NCCNS(=O)(=O)c3ccccc3)c(C#N)cc2c1    13.1 µM (active)
CCOc1ccc(S(=O)(=O)NCCSc2ccccc2)cc1    inactive
COc1ccc(CNC(=O)COC(=O)c2c(C)nn(-c3ccccc3)c2C)cc1OC    inactive

* * *

# PROCEDURE SUMMARY: Primary qHTS for delayed death inhibitors of the malarial parasite plastid, 96 hour incubation
# MEASUREMENT CONTEXT: P. falciparum luciferase reporter growth; series mostly up to 28.7 µM
Out of some 320,000 compounds screened, about 22,000 (6.9%) were called active. Another 27% or so got no clear call; they are omitted. Calls come from the whole dose curve; as a rule, active = well fitted inhibition curve with a large enough effect; inconclusive = small, poorly fitted or top-dose-only effect, or another doubt; inactive = no such curve, though single readings can be large or run the other way. The sample holds actives, similar compounds and a random draw of the others, so the mix is not that of the screen.
Labels: label 1 for active, label 0 for inactive

O=C(Nn1cnc2ccccc2c1=O)c1ccc(F)cc1Cl    label 1
Nn1c(SCC(=O)Nc2nccs2)nnc1-c1ccco1    label 0
O=C(Nn1cnc2ccccc2c1=O)c1ccccc1    label 0
CC(C)Cc1nnc(NC(=O)CN2C(=O)NC3(CCCCC3)C2=O)s1    label 0
COCCNC(=O)c1ccc2nc(Cc3ccc(OC)c(OC)c3)oc2c1    label 0
O=C(CNc1ccc(F)cc1F)NC(=O)NCc1ccco1    label 0

src = PubChem BioAssay AID504834
